- Species on record: Rattus norvegicus
- experiment description: Open TG-GATES - Regimen: Single
- Assay type: toxicity, organism-based, Sprague-Dawley
- Set-up: regimen Single, gender Male, age 6 weeks
- condition info: in vivo, po, 300 mg/kg, 6 h, tissue Plasma, route gavage, dose level Middle
quantity measured: GLC (mg/dL)

[[record]]
compound = "COc1ccc2[nH]c([S+]([O-])Cc3ncc(C)c(OC)c3C)nc2c1 (centres undefined)"
unit = "mg/dL"
recorded_result = 192

[[record]]
compound = "NC(N)=Nc1nc(CSCCC(N)=NS(N)(=O)=O)cs1"
unit = "mg/dL"
recorded_result = 195

[[record]]
compound = "COC1=CC(=O)C[C@@H](C)[C@]12Oc1c(Cl)c(OC)cc(OC)c1C2=O"
unit = "mg/dL"
recorded_result = 205.6

[[record]]
compound = "CCOC(=O)CCC(=O)O[C@H]1[C@H](O[C@@H]2[C@@H](C)[C@H](O[C@H]3C[C@@](C)(OC)[C@@H](O)[C@H](C)O3)[C@@H](C)C(=O)O[C@H](CC)[C@@](C)(O)[C@H](O)[C@@H](C)C(=O)[C@H](C)C[C@@]2(C)O)O[C@H](C)C[C@@H]1N(C)C [ERYTHROMYCIN ETHYLSUCCINATE]"
unit = "mg/dL"
recorded_result = 180


---

- Organism: Rattus norvegicus
- experiment description: Open TG-GATES - Regimen: Single
- Format: toxicity, organism-based, Sprague-Dawley
- Parameters: regimen Single, gender Male, age 6 weeks
- condition info: in vivo, po, 0 mg/kg, 9 h, tissue Plasma, route gavage, dose level Control
quantity measured: LDH

[[record]]
molecule = "CCOc1ccc(NC(=O)CC(C)O)cc1 (stereo not drawn) [BUCETIN]"
recorded_result = "70.2 IU/L"

[[record]]
molecule = "CCCNC(=O)NS(=O)(=O)c1ccc(Cl)cc1 [CHLORPROPAMIDE]"
recorded_result = "63.6 IU/L"

[[record]]
molecule = "COc1ccc2[nH]c([S+]([O-])Cc3ncc(C)c(OC)c3C)nc2c1 (stereo not drawn) [OMEPRAZOLE]"
recorded_result = "175.4 IU/L"

[[record]]
molecule = "CN(C)CCCN1c2ccccc2CCc2ccc(Cl)cc21 [CLOMIPRAMINE]"
recorded_result = "109.8 IU/L"

[[record]]
molecule = "CC/C(=C(\\c1ccccc1)c1ccc(OCCN(C)C)cc1)c1ccccc1 [TAMOXIFEN]"
recorded_result = "50 IU/L"

[[record]]
molecule = "O=C(CCCN1CCC(O)(c2ccc(Cl)cc2)CC1)c1ccc(F)cc1 [HALOPERIDOL]"
recorded_result = "83.8 IU/L"

[[record]]
molecule = "NNC(=O)c1ccncc1 [ISONIAZID]"
recorded_result = "237.4 IU/L"

[[record]]
molecule = "C[C@@H]1C[C@H]2[C@@H]3CCC4=CC(=O)C=C[C@]4(C)[C@@]3(F)[C@@H](O)C[C@]2(C)[C@@]1(O)C(=O)CO [DEXAMETHASONE]"
recorded_result = "80.4 IU/L"


---

The following molecules are shown together with reported KIDNEY_R values.
- Species: Rattus norvegicus
- experiment description: Open TG-GATES - Regimen: Single
- Format: toxicity, organism-based, Sprague-Dawley
- Set-up: regimen Single, gender Male, age 6 weeks
- condition info: in vivo, po, 100 mg/kg, 6 h, tissue Kidney, route gavage, dose level Low
quantity measured: KIDNEY_R (g)

[[record]]
molecule = "NC(N)=Nc1nc(CSCCC(N)=NS(N)(=O)=O)cs1"
quantity_measured = "KIDNEY_R"
recorded_result = 0.9

[[record]]
molecule = "CCOC(=O)CCC(=O)O[C@H]1[C@H](O[C@@H]2[C@@H](C)[C@H](O[C@H]3C[C@@](C)(OC)[C@@H](O)[C@H](C)O3)[C@@H](C)C(=O)O[C@H](CC)[C@@](C)(O)[C@H](O)[C@@H](C)C(=O)[C@H](C)C[C@@]2(C)O)O[C@H](C)C[C@@H]1N(C)C [ERYTHROMYCIN ETHYLSUCCINATE]"
quantity_measured = "KIDNEY_R"
recorded_result = 1

[[record]]
molecule = "COC1=CC(=O)C[C@@H](C)[C@]12Oc1c(Cl)c(OC)cc(OC)c1C2=O"
quantity_measured = "KIDNEY_R"
recorded_result = 0.9

[[record]]
molecule = "COc1ccc2[nH]c([S+]([O-])Cc3ncc(C)c(OC)c3C)nc2c1 (centres undefined)"
quantity_measured = "KIDNEY_R"
recorded_result = 1


Recorded values, source ChEMBL document CHEMBL3885861.
